Assign MIC against B. subtilis to each entry below.
tested on: B. subtilis; assay: Minimal Inhibitory Concentration, NCCLS guidelines (Example 4); type: cell-based, Bacillus subtilis; conditions: purified peptide
Note: unit micrograms/mL is implicit; provide only the numeric part.

Param readout = MIC against B. subtilis; param system = B. subtilis; param query = Q14K + K26R: variant of Plectasin (SEQ ID NO: 1) (GFGCNGPWDEDDMKCHNHCKSIKGYRGGYCAKGGFVCKCY) ; response: value 0.13

Could you share what MIC against B. subtilis was measured for GFGCNGPWDEDDKQCHNHCKSIKGYKGGYCAKGGFVCKCYR [M13K + Y40YR] , tested on B. subtilis? 0.25

Lab request: please report MIC against B. subtilis under test system B. subtilis for GFGCNGPWDEGDMQCHNHCKSIKGYRGGYCAKGGFVCKCY [D11G + K26R] 0.50

For B. subtilis, provide MIC against B. subtilis of GFGCNGPWDEGDMQCHNHCKSIKGYRGGYCAKGGFVCKCYR (Synthetic antimicrobial polypeptide) [D11G + K26R + Y40YR] please. 0.06

Give MIC against B. subtilis (B. subtilis) of the following substance: GFGCNGPWDEDDMQCHNHCKSIKGYKGGYCAKGGFVCKCY (listed as Pseudoplectania nigrella) [wildtype, wildtype plectasin, parent antimicrobial polypeptide, reference compound] 1
